Hello, the source for this data is the RNAGym collection of RNA variant scans (doi:10.1002/anie.201605470), in case you need it.

B1: Osa-1-4 twister ribozyme (parent)
chain: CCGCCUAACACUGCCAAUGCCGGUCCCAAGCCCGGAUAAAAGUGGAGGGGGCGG

# Variants of: B1
# assay.method.text: self-cleavage, relative activity (ratio to wild type); higher = more cleavage; co-transcriptional
value.type: self-cleavage

Worked set:
variant.name | self-cleavage
C11G C15U | 0.08
A46C G47U | 0.04
C21G G19C | 0.02
G48U U24G | 0.01
C11G C26U | 0.19

We next turn to a different variant, shown below.
Form field self-cleavage, entry G13A G30C : 0.02
